Hey, just so you know, these numbers are from ChEMBL document CHEMBL3603747.

# ASSAY SUMMARY: Cmax in CB17 SCID mouse at 200 mg/kg, sc by LC-MS method
# Format: ADME, organism-based
# Parameters: dose 200 mg/kg, route subcutaneous
# SETUP CONDITIONS: in vivo
REPORTED METRIC: Cmax (ng/mL)
Return type: number; implicit unit ng/mL.

[ask] Query (molecule): CCS(=O)(=O)N1CCC([C@@H](C)n2c(C)c(C(=O)NCc3c(OC)cc(C)[nH]c3=O)c3ccccc32)CC1 ; field requested: Cmax
[reply] 9150

----------
# ASSAY SUMMARY: Volume of distribution at steady state in CB17 SCID mouse at 1 mg/kg, iv by LC-MS method
# Format: ADME, organism-based
# SETUP CONDITIONS: in vivo, read-out: Vdss
REPORTED METRIC: Vd (L/kg)
Return type: number; implicit unit L/kg.

[ask] Query (compound): CCS(=O)(=O)N1CCC([C@@H](C)n2c(C)c(C(=O)NCc3c(OC)cc(C)[nH]c3=O)c3ccccc32)CC1 ; field requested: Vd
[reply] 0.795

----------
# ASSAY SUMMARY: AUC in CB17 SCID mouse at 1 mg/kg, iv by LC-MS method
# Type: ADME, organism-based
# SETUP CONDITIONS: in vivo
REPORTED METRIC: AUC (ng·h/mL)
Return type: number; implicit unit ng·h/mL.

[ask] Query (compound): CCS(=O)(=O)N1CCC([C@@H](C)n2c(C)c(C(=O)NCc3c(OC)cc(C)[nH]c3=O)c3ccccc32)CC1 ; field requested: AUC
[reply] 362
